The reported measurements were obtained from PubChem BioAssay (NCI).

System: MCF7 breast
Assay: NCI-60 one-dose screen, 48 h (100 = growth as untreated, 0 = no growth, -100 = all killed)
Conditions: 10 µM unless noted
This is part of a sample that, as a whole, favours compounds with a hit. Of some 83,000 tested, about 20% had one in any assay.

Molecule	growth, %
CC1=C(C(=O)OCc2ccccc2)C(c2ccc(N(C)C)cc2)n2c(nc3ccccc32)N1 (stereo not drawn)	65.2
COc1ccc2[nH]cc(-c3cc4nc(-c5cn(C)c6ncccc56)cc(N)n4n3)c2c1	-24.8
Fc1ccc(Nc2nnc(-c3c[nH]c4ccccc34)o2)cc1	49.9
COc1ccc(C(=O)c2cc(C(C)=O)c3c(C)cc(C)cn23)cc1	35.2
COC(=O)c1cccc(Oc2ccc(NC(=O)Nc3cc(C(F)(F)F)ccc3F)cc2)c1	61.8
COc1ccc2[nH]c(O)c(N=Nc3nc(-c4ccccc4)cs3)c2c1	11.6
CC[C@@]12CC(C(=O)OC)=C3Nc4cc5c(cc4[C@@]34CCN(C[C@H]3O[C@H]31)[C@@H]24)[C@@H]1[C@H](O5)[C@@H](O)[C@@]2(CC)CC(C(=O)OC)=C3Nc4cc(O)ccc4[C@@]34CCN1[C@@H]24	-56.8
N#C/C(=C/c1ccc([N+](=O)[O-])cc1)c1nnc(NC(=O)c2ccc(-n3c(=O)[nH]c4ccccc4c3=O)cc2)s1	84.9

----------
Tested on: MDA-MB-468 breast
Test: NCI-60 one-dose screen, 48 h (100 = growth as untreated, 0 = no growth, -100 = all killed)
Conditions: 10 µM unless noted
Compounds without any hit were thinned out: in the full panel of roughly 83,000, 20% have a hit.
Observation type: growth (%)

In [3]: df
Out[3]:
                                    compound  observation_type  test_value
 0  CCC(=O)c1cc(C(=O)OC)c2ccc3c4ccccc4ccc3n12            growth        83.6
 1  COc1cc(/C=C/C(=O)c2cnn(-c3cc(=O)[nH]c4ccccc34)c2C)cc(OC)c1OC            growth       -35.3
 2  FC(F)(F)CN1CCN(CCn2c(C(F)(F)F)cc3c(Cl)ncnc32)CC1            growth         -64
 3  Cc1cn(-c2cc(NC(=O)c3ccc(C)c(-n4cc(-c5cnc6cccnn56)nn4)c3)cc(C(F)(F)F)c2)cn1            growth        99.1
 4  Cn1cc(-c2cc(N)n3nc(-c4c[nH]c5ccc(Cl)cc45)cc3n2)c2cccnc21            growth       -93.7
 5  CCCCNc1ccc2c3c(cccc13)C(=O)N(NCC(O)COc1ccc3c(C)cc(=O)oc3c1)C2=O (centres undefined)            growth        68.8
 6  COc1ccc(NC(=O)CSc2nnc(-c3ccc(-c4nc5ccc(Cl)cc5[nH]4)cc3)o2)cc1            growth        86.2
 7  O=C(N/N=C/c1c[nH]c2ccccc12)Nc1ccc(F)c(Cl)c1            growth       -1.93
 8  CN1CCN(C(=O)Oc2cc3c(c4ccccc24)[C@H](CCl)CN3C(=O)c2cc3cc(OCCCN4CCC4)ccc3[nH]2)[C@H]2CSSC[C@H]21            growth       -78.4
 9  COc1ccc(-c2cc(C(=O)N=Nc3c(O)[nH]c4ccc(Cl)cc34)c3ccccc3n2)cc1            growth        74.9
10  S=C(Nc1ccc(OCc2nc3ccc(Cl)cc3[nH]2)cc1)NC1CCCCC1            growth       -30.8
11  O=C(CSc1nc2ccccc2c(=O)[nH]1)Nc1ccccc1C(=O)O            growth        92.5
12  CCCCN1C(=O)/C(=C\C(=O)c2cc3ccccc3oc2=O)c2ccccc21            growth        18.1
13  N#Cc1ccc(C(=O)NNC(=O)CSc2nc3sc4c(c3c(=O)n2-c2ccc(Cl)cc2)CCCC4)cc1            growth          92
14  Oc1ccc(F)c(Nc2nc(SCCN3CCOCC3)nc3c2cnn3CC(Cl)c2ccc(Br)cc2)c1 (centres undefined)            growth       -20.5
15  Cc1ccc(Cl)cc1NC(=O)Nc1nc2ccc([N+](=O)[O-])cc2s1            growth       -39.3
16  CCCCCCCOc1ccc(S(=O)(=O)Nc2ccc(C)c(F)c2C(=O)O)cc1            growth        72.8
17  CCN(C(=O)CN1C(=O)/C(=C/c2ccco2)SC1=S)C1CCS(=O)(=O)C1 (centres undefined)            growth          61
18  COc1ccc2[nH]cc(-c3cc(N)n4nc(-c5c[nH]c6ccccc56)cc4n3)c2c1            growth       -67.8

----------
The entries below are paired with their reported growth.
System: SK-MEL-5 melanoma
Test: NCI-60 one-dose screen, 48 h (100 = growth as untreated, 0 = no growth, -100 = all killed)
Settings: 10 µM unless noted
About 83,000 compounds went through this panel and 20% of them were active in at least one assay; those are over-represented in the sample as a whole.
Observation type: growth (%)

In [3]: df
Out[3]:
                                   compound  test_value
0  CC(Nc1ncnc2ccc(-c3ccc4oc(N)nc4c3)cc12)c1ccccc1 (stereo not given)       -75.3
1  COc1cc(NC(=O)C(C)C)ccc1C(=O)NC(=S)Nc1ccc(S(N)(=O)=O)cc1         114
2  COc1ccc2[nH]cc(-c3cc4nc(-c5cn(C)c6ncc(Br)cc56)cc(N)n4n3)c2c1       -88.3
3  O=C1Nc2ccccc2/C1=C\c1ccc(OCC(=O)c2ccc(Br)cc2)cc1        28.9
4  COc1ccc(N=Nc2c(N)nn3c(N)c(C#N)c(-c4ccccc4)nc23)cc1        34.2
5  CC1=C(C(=O)Nc2ccccc2)C(c2ccc3ccccc3c2)n2c(nc3ccccc32)N1 (stereo not given)        87.3
6  COC(=O)c1cccc(Oc2ccc(NC(=O)Nc3cc(C(F)(F)F)ccc3F)cc2)c1        94.5
7      Cc1ccccc1Nc1nnc(-c2c[nH]c3ccccc23)o1         -17
8  COc1ccc2c(c1)C(Sc1ccc(Br)cc1)c1c(nc(N)c(C#N)c1N)O2 (stereo not given)        85.6
9  N#CC1=C(c2cccs2)Nc2c(c(-c3ccccc3)nn2-c2ccccc2)C12C(=O)Nc1ccc(Br)cc12 (stereo not given)       0.371

----------
Tested on: RXF 393 renal
Experiment: NCI-60 one-dose screen, 48 h
Conditions: 10 µM unless noted
About 83,000 compounds went through this panel and 20% of them were active in at least one assay; those are over-represented in the sample as a whole. Activity calls are given as the source filed them. How the source made its calls: active means growth percent below 10; inactive means the rest.
Outcomes: active, inactive

>>> df
                                    molecule  category
 0  COc1ccc(NC(=O)Cn2c(/C=C/c3ccc([N+](=O)[O-])cc3)nc3ccccc3c2=O)cc1    active
 1  Cc1ccc(-c2cc(-c3ccccc3)[nH]c(=O)c2C#N)cc1  inactive
 2  O=C(Cc1c(-c2ccccc2[N+](=O)[O-])n(-c2ncnc3c2c(-c2ccccc2)c(-c2ccccc2)n3Cc2ccccc2)[nH]c1=O)c1ccc(Cl)c(Cl)c1  inactive
 3     Cn1ncc2c(N)nc(Oc3ccccc3-c3ccccc3)nc21  inactive
 4  N#Cc1cc(-c2ccnc(Nc3ccc(N4CCN(C5COC5)CC4)cc3)n2)ccc1N1CCCC1    active
 5  Cc1ccc(Cl)cc1NC(=O)N/C(N)=N/c1nc2ccccc2s1    active
 6  Nc1cc(-c2c[nH]c3ccc(F)cc23)nc2cc(-c3c[nH]c4ccccc34)nn12  inactive
 7  O=C(CSc1nnc(-c2ccc(-c3nc4ccc(Cl)cc4[nH]3)cc2)o1)Nc1ccc(Br)cc1    active
 8  CCN1C(=O)N(CC)C2NNC(Sc3c(C(=O)O)c4ccccc4n(CCC(C)C)c3=O)=NC21 (centres undefined)    active
 9  CCCCNc1ccc2c3c(cccc13)C(=O)N(c1cccc(-c3nn(-c4ccccc4)cc3-c3nc4ccccc4s3)c1)C2=O  inactive
10  O=C(CSc1nc2ccccc2c(=O)[nH]1)NNC(=O)c1ccccc1Cl  inactive
11    COc1ccccc1NC(=O)N/N=C/c1c[nH]c2ccccc12    active
12  O=C1N/C(=N\c2nccs2)S/C1=C\c1ccc([N+](=O)[O-])cc1    active
13       CCCCCCCCCCCCCCCCCC(=O)Nc1ccc(OC)cc1  inactive
14  O=C1/C(=C/c2cnc(-c3ccccc3)s2)SC(=S)N1Cc1ccc2c(c1)OCO2  inactive
15  CN1C(=O)C(O)(CC(=O)c2cc3ccccc3oc2=O)c2ccccc21 (centres undefined)  inactive
16  COc1ccc(-c2cc(C(=O)Oc3ccc(C=O)cc3OC)nn2-c2ccc(S(C)(=O)=O)cc2)cc1  inactive
17  COc1ccc(N=Nc2c(N)nn3c(N)c(C#N)c(-c4ccccc4)nc23)cc1    active
18  CC1=C(C(=O)OCc2ccccc2)C(c2cccc3ccccc23)n2c(nc3ccccc32)N1 (centres undefined)    active
